target: Dual specificity protein phosphatase 6 (Rattus norvegicus); assay: MKP-3 phosphatase inhibitors, primary screen, biochemical, rat enzyme, in vitro (AID 425); conditions: recombinant MKP-3 phosphatase activity, fluorescence; at 20 µM; active compounds read high;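 also: plate controls were vehicle for no effect and reference inhibitor for full effect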
About 190 (0.17%) of roughly 110,000 compounds were called active. This excerpt belongs to a sample that is enriched for actives. Potency and affinity values are given separately.
reported-property: inhibition (%)
Express the result in % but write the number alone.

The compound "O=C(CCCn1c(=O)c2sccc2n(Cc2ccc(F)cc2)c1=O)NCc1ccco1" showed inhibition equal to -8.3

The value of inhibition measured for the compound "COc1cccc(C(=O)Nc2ccc(OC(F)(F)F)cc2)c1" turned out to be 3.1

// inhibition lookup, compound = "O=c1c2ccc(Br)c3cccc(c32)c2nc3ccc4c5c(ccc(c35)n12)CC4" , result: 0.3

The reported value for C/C(=N\NC(=O)C1(C)CC1(Br)Br)c1ccc(Br)s1 (configuration not stated) in terms of inhibition is 0.4

The recorded inhibition for "Cc1c(CCC(=O)O)c(=O)oc2cc(O)ccc12" is 2.4

Consider "CN1C(=O)/C(=C\c2cc(Br)ccc2OCc2ccccc2)SC1=S" . Its measured inhibition is 2.6

Quick note, inhibition for "Cc1cc2c(cc1Br)NC(=O)C2=O" landed at 1.5

Value of measured inhibition for the entry "Cc1ccc(/C(O)=C(\C#N)c2nc3ccccc3[nH]2)cc1" : 5.3

Short answer for "Cc1ccc(S(=O)(=O)Cc2ccc(C(=O)N3CCN(c4ccc(F)cc4)CC3)o2)cc1" : inhibition was -8.1

In plain terms, "COc1ccc(C(=O)NC(=S)Nc2ccc(I)cc2)cc1" has a documented inhibition of 1.2

Summary for this compound, "Cc1c(Cl)cccc1N=C1NC(=O)/C(=C/c2ccc(OC(C)C)cc2)S1" : inhibition is 3.5

# inhibition (compound: "Cc1ccc(-n2c(=O)c3cc4c(=O)n(-c5ccc(C)c(C)c5)c(=O)c4c(C(=O)c4ccccc4)c3c2=O)cc1C" ) is 0.3

---

biological target: Dual specificity protein phosphatase 6 (Rattus norvegicus) (UniProt Q64346); experiment: MKP-3 phosphatase inhibitors, primary screen, biochemical, rat enzyme, in vitro (AID 425); conditions: recombinant MKP-3 phosphatase activity, fluorescence; at 20 µM; active compounds read high;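 also: plate controls were vehicle for no effect and reference inhibitor for full effect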
Sequence (Q64346 whole entry, looked up): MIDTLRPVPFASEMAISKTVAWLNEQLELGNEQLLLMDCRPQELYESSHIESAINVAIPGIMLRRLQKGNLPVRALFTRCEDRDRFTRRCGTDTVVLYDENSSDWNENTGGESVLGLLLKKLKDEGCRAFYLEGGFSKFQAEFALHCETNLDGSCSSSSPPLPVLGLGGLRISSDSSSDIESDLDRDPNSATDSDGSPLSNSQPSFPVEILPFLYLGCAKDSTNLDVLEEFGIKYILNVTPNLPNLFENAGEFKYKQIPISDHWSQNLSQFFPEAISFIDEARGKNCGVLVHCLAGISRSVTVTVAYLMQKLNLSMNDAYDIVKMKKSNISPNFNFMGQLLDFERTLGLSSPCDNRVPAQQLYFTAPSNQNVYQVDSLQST
The campaign covered roughly 110,000 compounds. About 190 (0.17%) were called active. The sample holds actives, similar compounds and a random draw of the others, so the mix is not that of the screen. Measured potencies and affinities stand elsewhere.
Answer each item with its documented inhibition.
Give the quantity in %, number only.

Measured inhibition of "O=S(=O)(c1cc(Cl)cc(Cl)c1O)c1cc(Cl)cc(Cl)c1O" : -3.1

In plain terms, "COc1ccccc1/C=C1/C(=O)NC(=O)N(c2ccccc2OC)C1=O" has a documented inhibition of -1.2

Short answer for "Cc1ccccc1C=Nc1ccc(O)cc1" : inhibition was 112

Value of inhibition reported for the compound "CCOc1ccccc1C=Nc1cc(Cl)cc(Cl)c1" is -0.8

inhibition recorded for this compound, "Oc1cccc(C=Nc2ccccc2)c1O" , is 120

Value of measured inhibition for the entry CCOc1ccc2nc(SC3CC(=O)N(c4ccccc4C)C3=O)sc2c1 (configuration not stated) : 0.7

The compound identified as "CCc1ccc(-n2c(C)cc(/C=N/NC(=O)c3cccnc3)c2C)cc1" registered its inhibition at 6.1

"N#Cc1c(N2CCCCC2)nc(N2CCCCC2)c2c1CCN(Cc1ccccc1)C2" yielded inhibition of 3.8

Memo: "Cn1cnnc1Sc1nc2c(c(=O)n(C)c(=O)n2C)n1C" , reported inhibition: -3.7

The value of inhibition measured for the compound Cc1nc(C)n(CC(O)COc2ccc3c(c2)CCC3)n1 (configuration not stated) turned out to be -16.3

inhibition in this record for "COc1ccccc1C=C1C(=O)NC(=S)N(c2ccccc2F)C1=O" : 3

Item: "O=[N+]([O-])c1ccc(S(=O)(=O)NCCOc2ccccc2Cl)cc1" | inhibition: -1.1
